experimentalTarget: T1, human gastric inhibitory peptide receptor (GIPR) (human, UniProt P48546 22-466)
T1 sequence (looked up): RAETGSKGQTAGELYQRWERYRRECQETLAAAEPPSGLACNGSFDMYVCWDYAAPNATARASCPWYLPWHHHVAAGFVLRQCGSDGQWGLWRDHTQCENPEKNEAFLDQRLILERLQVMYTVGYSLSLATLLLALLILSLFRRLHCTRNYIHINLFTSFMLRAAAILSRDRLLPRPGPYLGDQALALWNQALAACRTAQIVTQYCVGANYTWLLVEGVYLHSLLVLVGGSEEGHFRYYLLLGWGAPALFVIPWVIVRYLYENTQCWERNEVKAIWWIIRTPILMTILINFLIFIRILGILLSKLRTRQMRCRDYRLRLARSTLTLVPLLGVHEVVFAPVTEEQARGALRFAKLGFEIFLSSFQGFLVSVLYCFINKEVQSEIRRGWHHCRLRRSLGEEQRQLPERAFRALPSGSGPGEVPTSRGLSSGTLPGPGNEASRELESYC
experimentalProtocol: cell-based or functional assay
Numbered stars: 1 amine (or outer) side, 2 acyl side, 3 side chain; on linkers, the order of the positions; unused ones are H or OH. Square brackets hold non-standard residues; d marks the D form. Side chains are listed from the residue outwards. Ends that are not written are not given here. * marks the point of attachment. C20 diacid = O=C(O)CCCCCCCCCCCCCCCCCCC(=O)*; γGlu = O=C(O)[C@H](CCC(=O)[*:2])N[*:1]; AEEA = NCCOCCOCC(=O)O; Aib = CC(C)(N)C(=O)O
propertyName: hGIPR cAMP Rel EC50 (pM)
Hi! Could you send only the number? It should be in pM, unit omitted.

Field: example entries. Status: answers known.
binder	hGIPR cAMP Rel EC50 / pM
YXEGTXTSDYSIXLDXKAQXEFIXYLIEGGPSSGAPPPS (Aib2, αMeF(2F)6, Nle13, Orn16, (2-[2-(2-Amino-ethoxy)-ethoxy]-acetyl)2-(γ-Glu)-CO-(CH2)16-CO2H on K17, Aib20, D-Glu24, C-terminal NH2) [Example 249]	43.7
YXEGTXTSDYSILLDEKAQXAFIEYLIEGGPSSG (Aib2, αMeF6, (2-[2-(2-Amino-ethoxy)-ethoxy]-acetyl)2-(γ-Glu)-CO-(CH2)16-CO2H on K17, Aib20, C-terminal NH2) [Example 307]	28.5

Any idea what hGIPR cAMP Rel EC50 was measured for F[Aib]EGTFTSDYSILLDKK([AEEA-AEEA-γGlu-C20 diacid])AQ[Aib]AFIEYLIEGGPSSGAPPPS-NH2 [Example 326] ?
75.4
